# targetOrSystem: ARHGEF12, Q9NZN5-2
# Sequence (Q9NZN5 other isoform, or with tags, fused parts or gaps): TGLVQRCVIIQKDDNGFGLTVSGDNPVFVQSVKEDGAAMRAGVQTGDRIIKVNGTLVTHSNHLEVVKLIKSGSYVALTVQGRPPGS
# protocolNotes: holdup assay
# Design: key: below the threshold = too weak to quantify, mostly under pKd 3.1 to 4
# conditionDetails: plain residues with an end cap or a label only (N-terminal biotin on a linker: ado-ado)
Is pKd at least 4? Then Yes. If not, No.

Reference set (3 entries):
TASPAKETSF [SLC2A7, Q6PXP3]	No
TPPAAKKSRI [BAZ1A, Q9NRL2]	No
QGLAERISVL [PRKD2, Q9BZL6]	Yes

Query block: Hi team, for DDPSTAETVL [ABCA7, Q8IZY2] , is the recorded pKd at or above 4?
Result block: Yes

Query block: pKd >= 4 for EALLQMESVA [CAVIN3, Q969G5] ?
Result block: No
